The reported measurements were obtained from ChEMBL document CHEMBL1142954.

Test system: Mus musculus
Assay: Ratio of drug uptake in iv dosed Balb/C mouse brain at 2 to 30 mins
Type: ADME, organism-based
Details: in vivo
Recorded Ratio for the following molecules
Response field accepts a number only; no unit should be typed.

[11CH3]Nc1ccc(-c2nc3cc(F)ccc3s2)cc1: 2.5

Enquiry: Could you tell me which Ratio is on file for `[11CH3]Nc1ccc(-c2nc3ccccc3s2)cc1F` ?
Return: 3.1

Enquiry: Okay, and `[11CH3]Nc1ccc(-c2nc3cc(F)ccc3s2)cc1Cl` ?
Return: 9.8

Enquiry: Okay, and `Cc1cc(-c2nc3ccccc3s2)ccc1N[11CH3]` ?
Return: 2.8

Enquiry: Okay, and `Cc1cc(-c2nc3cc(F)ccc3s2)ccc1N[11CH3]` ?
Return: 6.3

Enquiry: Okay, and `[11CH3]Nc1ccc(-c2nc3cc(F)ccc3s2)cc1Br` ?
Return: 2.5

---

Test system: Plasma
Assay: Metabolic stability in Balb/C mouse plasma assessed as radioactivity
Type: ADME, cell-free
Observable: t1/2 (min)
Kindly answer with a numeric value in min, unit omitted.

Before answering, review these 5 worked examples.
Cc1cc(-c2nc3ccccc3s2)ccc1N[11CH3]: 7.5
[11CH3]Nc1ccc(-c2nc3cc(F)ccc3s2)cc1: 6.8
Cc1cc(-c2nc3cc(F)ccc3s2)ccc1N[11CH3]: 14.3
[11CH3]Nc1ccc(-c2nc3cc(F)ccc3s2)cc1Cl: 22.1
[11CH3]Nc1ccc(-c2nc3cc(F)ccc3s2)cc1Br: 7.2

Now turn to the next molecule.
Enquiry: Could you tell me which t1/2 is on file for `[11CH3]Nc1ccc(-c2nc3ccccc3s2)cc1F` ?
Return: 8.4

---

Recorded logP for the following compounds
Assay: Lipophilicity, log P of the compound
Assay type: physicochemical
Details: octanol/water
Response field accepts a number only; no unit should be typed.

Before answering, review these 3 worked examples.
[11CH3]Nc1ccc(-c2nc3cc(F)ccc3s2)cc1Cl: 2.81
[11CH3]Nc1ccc(-c2nc3cc(F)ccc3s2)cc1: 3.27
[11CH3]Nc1ccc(-c2nc3cc(F)ccc3s2)cc1Br: 4.18

Enquiry: Could you tell me which logP is on file for `Cc1cc(-c2nc3cc(F)ccc3s2)ccc1N[11CH3]` ?
Return: 2.93

Enquiry: Okay, and `[11CH3]Nc1ccc(-c2nc3ccccc3s2)cc1F` ?
Return: 3.05

Enquiry: Okay, and `Cc1cc(-c2nc3ccccc3s2)ccc1N[11CH3]` ?
Return: 3.36
